Target: T1, Axl (Homo sapiens, UniProt P30530)
T1 sequence (P30530 26-451 limits assumed): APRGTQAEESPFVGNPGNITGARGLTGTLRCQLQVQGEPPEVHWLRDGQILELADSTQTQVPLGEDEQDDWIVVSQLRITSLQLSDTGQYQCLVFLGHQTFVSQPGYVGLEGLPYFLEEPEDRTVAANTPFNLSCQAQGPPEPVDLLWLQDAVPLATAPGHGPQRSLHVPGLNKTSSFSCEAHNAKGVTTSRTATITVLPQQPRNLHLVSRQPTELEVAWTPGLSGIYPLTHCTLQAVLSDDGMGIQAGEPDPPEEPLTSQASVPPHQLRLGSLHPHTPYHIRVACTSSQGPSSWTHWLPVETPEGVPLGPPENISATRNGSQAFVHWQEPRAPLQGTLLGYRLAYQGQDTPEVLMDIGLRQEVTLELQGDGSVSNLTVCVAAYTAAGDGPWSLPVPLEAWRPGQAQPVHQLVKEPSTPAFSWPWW
Assay: Affinity ELISA of CPE mutant antibodies for binding to Axl at pH 6.0 over pH 7.4
Settings: light chain variable region mutants; 1:3 dilution
Source text: The DNA encoding the wild-type antibody was evolved to generate a mutant antibody library using Comprehensive Positional Evolution (CPE), which each position in the template antibody is randomized one at a time. Each mutant antibody in the library has only one single point mutation. The mutant antibodies in the library were generated by simultaneously screening for selective binding affinity to Axl at pH 6.0 over pH 7.4 by ELISA. Two mutant antibody dilutions were used: 1:3 and 1:9 dilutions. […]
assay-readout: Affinity ELISA CPE mutant ratio (1:3, pH 6.0/7.4)

| molecule | value-observed |
| --- | --- |
| LC-V029D (antibody, V domains shown) VH: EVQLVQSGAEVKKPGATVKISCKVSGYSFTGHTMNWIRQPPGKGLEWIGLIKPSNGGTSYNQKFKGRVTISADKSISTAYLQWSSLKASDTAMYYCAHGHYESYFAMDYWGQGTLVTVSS VL: DIQMTQSPSSLSASVGDRVTITCKASQDDSSAVAWYQQKPGQAPRLLIYWASTRHTGVPSRFSGSGSGTEFTLTISSLQPDDFATYYCQEHFSTPLTFGQGTKVEIK | 2.882 |

What value of Affinity ELISA CPE mutant ratio (1:3, pH 6.0/7.4) has been reported for the following molecule? LC-H091S (antibody, V domains shown) VH: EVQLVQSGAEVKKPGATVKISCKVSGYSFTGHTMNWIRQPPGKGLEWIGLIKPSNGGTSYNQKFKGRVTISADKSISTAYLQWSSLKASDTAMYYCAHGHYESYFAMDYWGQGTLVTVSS VL: DIQMTQSPSSLSASVGDRVTITCKASQDVSSAVAWYQQKPGQAPRLLIYWASTRHTGVPSRFSGSGSGTEFTLTISSLQPDDFATYYCQESFSTPLTFGQGTKVEIK
1.758

Likewise for LC-P095K (antibody, V domains shown) VH: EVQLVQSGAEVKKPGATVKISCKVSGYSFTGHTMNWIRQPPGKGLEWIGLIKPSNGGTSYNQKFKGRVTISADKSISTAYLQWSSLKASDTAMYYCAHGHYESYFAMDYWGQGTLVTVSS VL: DIQMTQSPSSLSASVGDRVTITCKASQDVSSAVAWYQQKPGQAPRLLIYWASTRHTGVPSRFSGSGSGTEFTLTISSLQPDDFATYYCQEHFSTKLTFGQGTKVEIK ?
3.840

This collection of values is drawn from patent US20250276075A1.
